Tested on: TXK
Settings: concentration: 1 μM, replicates: in singlicate; n = 1;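 note: KINOMEscan kinase panel screen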
Measured %Inh, listed per entry.
measured attribute: %Inh (%)

# molecule, recorded measurement
data = [
    ("Cc1occc1-c1ncc(OC[C@@H](N)Cc2c[nH]c3ccccc23)cc1-c1ccc2[nH]nc(C)c2c1.O=C(O)C(F)(F)F [GSK682037]", 47),
    ("CN(C)Cc1ccc(-c2ccc3c(Nc4ccc(Oc5ccccn5)cc4)ccnc3c2)o1 [GW567148]", 0),
    ("Nc1ncc(-c2cccnc2)c2scc(-c3ccc4c(c3)CCN4C(=O)Cc3ccccc3)c12 [GSK683281]", 10),
    ("COc1cc(Nc2nccc(-c3c(-c4cccc(NC(=O)c5c(F)cccc5F)c4)nn4ccccc34)n2)cc(OC)c1OC [GSK323521]", 0),
    ("COc1ccc(Nc2nccc(NCCNC(=O)c3cc4ccccc4s3)n2)cc1 [GSK1379896]", 0),
    ("C[C@@H](Oc1cc(-n2cnc3cc(-c4ccnc(NCCS(C)(=O)=O)c4)ccc32)sc1C(N)=O)c1ccccc1Cl [GSK907232]", 28),
    ("Oc1cc(Nc2ccnc3cc(I)ccc23)ccc1F [GW552771]", 94.5),
    ("Cl.Cl.NCC(C(=O)Nc1cc(Br)c(-c2ccnc3[nH]ccc23)s1)c1ccccc1 (centres unmarked) [GSK1269851]", 0),
    ("c1ccc(-c2cnc3nccnn23)cc1 [AH20685]", 0),
    ("Fc1ccc(-c2ncn(C3CCNCC3)c2-c2ccnc(Oc3ccc(-c4ccccc4)cc3)n2)cc1 [SB-245391]", 8),
    ("CC(C)(C)c1ccc2nccc(Nc3cccc(O)c3)c2c1 [GW856795]", 79),
    ("Nc1n[nH]c2cnc(-c3ccccc3)cc12 [SB-642124]", 3),
    ("COc1cc2c(cc1OCCN1CCNCC1)ncc1c3ccc(C#N)cc3[nH]c21", 11),
    ("Cc1ccc(F)c(C(=O)Nc2cccc(-c3nn4ccccc4c3-c3ccnc(Nc4cccc(F)c4)n3)c2)c1F [GSK361061]", 52),
    ("FC(F)(F)c1ccc(/C=C/c2cncnc2Nc2ccc3[nH]c(Cc4ccccc4)nc3c2)cc1 [GW709199]", 0),
    ("COc1cc(Nc2nccc(-c3c(-c4cccc(NC(=O)c5c(F)cccc5F)c4)nn4ncccc34)n2)cc(OC)c1OC [GSK327238]", 93.6),
    ("Cl.c1ccc(-c2ccc3c(Nc4ccc5[nH]ccc5c4)ccnc3c2)nc1 [GW440138]", 0),
]

###

System: ULK1
Details: concentration: 1 μM, replicates: in singlicate; n = 1

# molecule, %Inh / %
rows = [
    ("CC(=O)N1CCN(c2ccc(Nc3nccc(-c4sc(C(C)C)nc4-c4cccc(NS(=O)(=O)c5cccc(Cl)c5)c4)n3)cn2)CC1", 37),
    ("Cc1cccc(NC(=O)Nc2ccc(Oc3ncnc4ccn(C)c34)cc2)c1", 0),
    ("Nc1ncc(-c2cccnc2)c2scc(-c3ccc4c(c3)CCN4C(=O)Cc3ccccc3)c12", 7),
    ("CC(C)c1nc(-c2cccc(NS(=O)(=O)c3c(F)cccc3F)c2F)c(-c2ccnc(Nc3ccc(N4CCOCC4)nc3)n2)s1", 63),
    ("O=C(Nc1cccc(Oc2ccc3nc(NC(=O)C4CC4)cn3n2)c1)c1ccccc1C(F)(F)F", 0),
    ("COC(=O)Nc1nc2ccc(Oc3ccc(NC(=O)Nc4cc(C(F)(F)F)ccc4F)cc3)cc2n1C.Cl", 0),
    ("Cl.Cl.NCC(C(=O)Nc1cc(Br)c(-c2ccnc3[nH]ccc23)s1)c1ccccc1 (centres unmarked)", 23),
    ("COc1cc(Nc2nccc(-c3c(-c4cccc(NC(=O)c5c(F)cccc5F)c4)nn4ccccc34)n2)cc(OC)c1OC", 0),
    ("CCCCc1nn2ncccc2c1-c1ccnc(Nc2ccc(N3CCN(C)CC3)cc2)n1", 23),
    ("Cl.Cl.NCC(NC(=O)c1cc(-c2ccccc2)c(-c2ccnc3[nH]ccc23)s1)c1ccccc1 (centres unmarked)", 8),
    ("CNC(=O)c1ccccc1Nc1nc(Nc2ccc(N3CCOCC3)cc2)ncc1Cl.Cl", 99.6),
    ("COc1cccc(C(=O)Nc2cccc(Oc3ccc4nc(NC(=O)C5CC5)cn4n3)c2)c1", 0),
    ("Cc1ccc(C)c(NC(=O)NC2CCN(c3ccnc(Nc4ccc(F)cc4)n3)C2)c1 (centres unmarked)", 0),
    ("CC(C)(C)c1ccc2nccc(Nc3cccc(O)c3)c2c1", 0),
    ("Fc1ccc(-c2ncn(C3CCNCC3)c2-c2ccnc(Oc3ccc(-c4ccccc4)cc3)n2)cc1", 54),
    ("Oc1cc(Nc2ccnc3cc(I)ccc23)ccc1F", 9),
    ("Cl.c1ccc(-c2ccc3c(Nc4ccc5[nH]ccc5c4)ccnc3c2)nc1", 0),
]

Values compiled from paper PMC5540273.
